The origin of these recorded values is patent US20250179000A1.

Biological target: Human mGlu3 (Homo sapiens, UniProt Q14832)
Sequence (Q14832 23-879): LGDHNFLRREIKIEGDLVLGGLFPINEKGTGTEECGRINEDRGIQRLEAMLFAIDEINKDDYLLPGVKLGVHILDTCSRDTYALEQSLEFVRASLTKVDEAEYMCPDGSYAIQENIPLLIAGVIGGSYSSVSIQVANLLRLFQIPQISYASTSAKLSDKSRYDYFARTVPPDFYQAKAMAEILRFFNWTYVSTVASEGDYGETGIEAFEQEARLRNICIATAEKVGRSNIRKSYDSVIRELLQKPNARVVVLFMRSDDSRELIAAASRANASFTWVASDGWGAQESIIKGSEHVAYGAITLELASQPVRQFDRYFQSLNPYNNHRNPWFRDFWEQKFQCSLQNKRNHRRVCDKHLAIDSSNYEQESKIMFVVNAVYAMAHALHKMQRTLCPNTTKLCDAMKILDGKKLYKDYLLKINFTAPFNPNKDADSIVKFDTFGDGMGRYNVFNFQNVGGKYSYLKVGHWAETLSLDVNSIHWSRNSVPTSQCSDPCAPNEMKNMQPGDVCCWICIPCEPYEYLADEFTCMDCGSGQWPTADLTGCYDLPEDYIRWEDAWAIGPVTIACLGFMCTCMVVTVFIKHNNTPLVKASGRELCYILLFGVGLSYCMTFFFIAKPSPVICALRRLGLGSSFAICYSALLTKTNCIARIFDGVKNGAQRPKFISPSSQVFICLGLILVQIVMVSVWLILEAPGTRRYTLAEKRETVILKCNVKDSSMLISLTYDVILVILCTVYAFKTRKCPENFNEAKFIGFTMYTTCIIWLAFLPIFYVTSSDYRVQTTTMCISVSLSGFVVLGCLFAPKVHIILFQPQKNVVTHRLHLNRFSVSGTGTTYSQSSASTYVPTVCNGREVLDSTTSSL
Assay: mGlu receptor in vitro assay, human mGlu3
pEC50: −log10 of the molar value.
Measured metric: pEC50

A: COC(=O)N(CCOc1cc(C(=O)O)ccc1OC)CCOc1ccc(C(=O)CC(C)(C)C)c(O)c1C
B: COc1ccc(C(=O)O)cc1OCCCCOc1ccc(C(=O)CC(C)(C)C)c(O)c1
C: COc1ccc(C(=O)O)cc1-c1cncc(COc2ccc(C(=O)C3CC3)c(O)c2C)n1
Exercise: Rank the 3 molecules: largest pEC50 first, smallest last. Answer by writing out the labels in the requested order.
Key: C, B, A
(C: 7.64, B: 6.94, A: 6.34)
